- assayInfo: in vitro
- setupConditions: human, Caco-2, pH 7.4
quantityName: Papp B→A at 2 h, 2 μM (×10⁻⁶ cm/s)
A number alone suffices; assume ×10⁻⁶ cm/s.

Qu. For the compound CC(=O)c1c(C)c2cnc(Nc3ccc(N4CCNCC4)cn3)nc2n(C2CCCC2)c1=O [Palbociclib, reference compound] , what Papp B→A at 2 h, 2 μM is on record?
Ans. 16.5

* * *

- assayInfo: in vitro
- setupConditions: human, Caco-2, pH 7.4
quantityName: Papp A→B at 2 h, 2 μM (×10⁻⁶ cm/s)
A number alone suffices; assume ×10⁻⁶ cm/s.

Qu. For the compound CC(=O)c1c(C)c2cnc(Nc3ccc(N4CCNCC4)cn3)nc2n(C2CCCC2)c1=O [Palbociclib, reference compound] , what Papp A→B at 2 h, 2 μM is on record?
Ans. 0.85
